# METHOD_NOTES: yeast display, Sf9 membrane polyspecificity reagent, FACS + sequencing; frameworks hold sequencing errors
QUANTITY_KIND: polyreactivity (PSR sort gate)

1) QVQLVESGGGLVQAGGSLRLSCAASGSTFYIYAMGWYRQAPGKERELVARISGSGGSTYYADSVKGRFTISRDNAKNTVYLQMNSLKPEDTAVYYCAADDIYKYYQYYAFPYYRYDYWGQGSQVTVSS | low polyreactivity
2) QVQLVESRGGLVQAGGSLRLTCAAYGRIFLVYDMGWYRHAPGKERELVAAISWSTGSTYYADSVKGRFTISRDNAKNTFYFQINSLITEDTAVYYCAAEPELDDYEHDYWGQGTQLTVSS | low polyreactivity
3) QVQLVESGGGLVQAGGSLRLSCAASGRIFRYNTMGWYRQAPGKERELVASITYRGGSTYYADSVKGRFTISRDNAKNTVYLQMNSLKPEDTAVYYCAASPARYWYGGKEYDYWGQGTQVTVSS | high polyreactivity
4) QVQLVESGGGLVQAGGSLRLSCAASGFTFHNYAMGWYRQAPGKERDFVAAITRNTASTYYADSVKGRFTISRDNAKNTVYLQMNSLKPEDTAVYYCNASRVVYRQAYLYGYDYWGQGTQVTVSS | low polyreactivity
5) QVQLVESGGGLVQAGGSLRLSCAASGRTFWYYAMGWYRQAPGNERELVATISYRGGSTYYADSVKGRFTISRDNAKNTVYLQMNSLKPEDPAVYYSAAKQWWGGRPKVDYWGQGTQVTVSS | high polyreactivity

====

# METHOD_NOTES: yeast display, Sf9 membrane polyspecificity reagent, FACS + sequencing; frameworks hold sequencing errors
QUANTITY_KIND: polyreactivity (PSR sort gate)

1. QVQLVESGGGLVQAGGSLRLSCAASGFNFDWYAMGWYRQAPGKERELVAAISASGGRTYYADSVKGRFTISRDNAKNTVYLQMNSLKPEDTAVYYCNKYYLVKGPYDWGQGTQVTVSS | high polyreactivity
2. QVQLVESGGGLVQAGGSLRLSCAASGLIFDSDAMGWYRQAPGKERELVAAITYTGGSTYYADSVKGRFTISRDSAKNTVYLQMNSLKPEDTAVYYCAARRQRDRYGYWGQGTKVTVSS | high polyreactivity

====

# METHOD_NOTES: yeast display, Sf9 membrane polyspecificity reagent, FACS + sequencing; frameworks hold sequencing errors
QUANTITY_KIND: polyreactivity (PSR sort gate)

1) QVQLVESGGGLVQAGGSLRLSCAASGSIFVLNAMGWYRQAPGKERELVAVISNIGGRTYYADSVKGRFTISRDNAKNTVYLQMNSLKPEDTAVYYCIFRSPSYEYDYWGQGTQVTVSS | low polyreactivity
2) QVQLVESGGGLVQAGGSLRLTCAASGSTLRYYAMGWYRQAPGKERELVAAISTGGSTYYADSVKGRFTISRDNAKITVYLQINSLKPEDTAVYYCAAEKKTKTYRYDYWGQGTQVTVSS | low polyreactivity
3) QVQLVESGGGLVQAGGSLRLSCAASGRTFGRYTMGWYRQAPGKERELVATIRFNGGSTYYADSVKGRFTISRDNAKNTVYLQMNSLKPEDTAVYYCASYRGAYWGQGTQVTVSS | high polyreactivity
4) QVQLVESGGGLVQAGGSLRLSCAASGIIFAKYAMGWYRQAPGKERELVAGISRSGGRTYYADSVKGRFTISRDNAKNTVYLQMNSLKPEDTAVYYCAAVPHGTGGWWKYDYWGQGTQVTVSS | high polyreactivity
5) QVQLVESGGGLVQAGGSLRLSCAASGSIFRYYAMGWYRQAPGKERELVATITSGGSTSYADSVKGRFTISRDNAKNTVYLQMNSLKPEDTAVYYCAKRSRHNKYYYWGQGTQVTVSS | high polyreactivity
